B1: library; numbered along this chain (parent)
chain: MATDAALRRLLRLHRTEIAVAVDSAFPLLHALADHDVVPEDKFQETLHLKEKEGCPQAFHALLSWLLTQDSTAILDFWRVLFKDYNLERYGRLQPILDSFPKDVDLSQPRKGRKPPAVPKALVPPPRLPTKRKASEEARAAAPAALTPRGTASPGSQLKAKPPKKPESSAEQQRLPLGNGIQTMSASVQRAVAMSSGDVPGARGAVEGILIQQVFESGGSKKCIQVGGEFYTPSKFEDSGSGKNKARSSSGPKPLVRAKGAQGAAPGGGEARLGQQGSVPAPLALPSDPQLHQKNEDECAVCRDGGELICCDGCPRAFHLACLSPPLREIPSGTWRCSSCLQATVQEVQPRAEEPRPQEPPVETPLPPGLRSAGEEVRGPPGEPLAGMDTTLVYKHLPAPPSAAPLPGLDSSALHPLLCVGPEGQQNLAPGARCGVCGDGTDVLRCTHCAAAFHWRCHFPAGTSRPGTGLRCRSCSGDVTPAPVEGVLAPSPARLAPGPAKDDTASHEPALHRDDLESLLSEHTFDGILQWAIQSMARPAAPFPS

- Variants of: B1
- assaySummary: AIRE transcriptional activation functional score (insulin promoter-GFP; nonsense median 0, synonymous median 1) (normalised score); higher = higher AIRE activity (more reporter activation)
- conditions: with insulin promoter-GFP reporter in HEK293
Binary call on AIRE transcriptional activation functional score: label 1 from 1 upward, label 0 beneath that.

Worked examples follow.
| residueChange | assignedLabel |
| --- | --- |
| A140G | label 1 |
| P350N | label 1 |
| T480I | label 0 |
| G267C | label 1 |
| Q213V | label 0 |

// next entry
Query block: Given the entry L414R , answer whether its AIRE transcriptional activation functional score meets or surpasses 1.
Result block: label 0
